The reported numbers originate from paper PMC10889159.

parameter measured: melting point

Answered examples (3):
[
  {
    "compound": "CCOc1ccccc1Nc1nnc(COc2ccc(C(=O)/C=C/c3ccc(O)cc3OC)cc2)o1 [Compound T11]",
    "parameter measured": "melting point",
    "test value": "175.4 to 188.3 °C"
  },
  {
    "compound": "COc1cc(O)ccc1/C=C/C(=O)c1ccc(OCc2nnc(Nc3ccccc3C)o2)cc1 [Compound T9]",
    "parameter measured": "melting point",
    "test value": "206.5 to 209.2 °C"
  },
  {
    "compound": "COc1cc(O)ccc1/C=C/C(=O)c1ccc(OCc2nnc(Nc3ccc(C)cc3)o2)cc1 [Compound T1]",
    "parameter measured": "melting point",
    "test value": "186.1 to 189.4 °C"
  }
]

get_value(item= COc1cc(O)ccc1/C=C/C(=O)c1ccc(OCc2nnc(Nc3c(F)cccc3F)o2)cc1 [Compound T17] , readout=melting point) returns 193 to 194.3 °C

melting point for COc1cc(O)ccc1/C=C/C(=O)c1ccc(OCc2nnc(Nc3ccc(C)cc3C)o2)cc1 [Compound T15] is 192.9 to 194.1 °C

// recorded melting point for COc1cc(O)ccc1/C=C/C(=O)c1ccc(OCc2nnc(Nc3ccc(C(C)(C)C)cc3)o2)cc1 [Compound T8] : 197.1 to 198.5 °C

// melting point value for COc1cc(O)ccc1/C=C/C(=O)c1ccc(OCc2nnc(Nc3ccc(Cl)cc3)o2)cc1 [Compound T7] : 211.4 to 212.1 °C

The recorded melting point for COc1cc(O)ccc1/C=C/C(=O)c1ccc(OCc2nnc(Nc3c(Cl)cccc3Cl)o2)cc1 [Compound T18] is 172.3 to 174.6 °C

Lab book: melting point of COc1cc(O)ccc1/C=C/C(=O)c1ccc(OCc2nnc(Nc3ccccc3Cl)o2)cc1 [Compound T13] noted as 191.3 to 191.8 °C

Quick note, melting point for COc1cc(O)ccc1/C=C/C(=O)c1ccc(OCc2nnc(Nc3ccc(OC(F)(F)F)cc3)o2)cc1 [Compound T5] landed at 227.6 to 228.4 °C

// melting point value for COc1ccc(Nc2nnc(COc3ccc(C(=O)/C=C/c4ccc(O)cc4OC)cc3)o2)cc1 [Compound T2] : 212.6 to 213.6 °C

get_value(item= COc1cc(O)ccc1/C=C/C(=O)c1ccc(OCc2nnc(Nc3cccc(Cl)c3)o2)cc1 [Compound T14] , readout=melting point) returns 225 to 225.9 °C

The reported value for COc1cc(O)ccc1/C=C/C(=O)c1ccc(OCc2nnc(Nc3ccc(F)cc3)o2)cc1 [Compound T6] in terms of melting point is 211.8 to 214.1 °C

###

Biological target: c-KIT (Homo sapiens, UniProt P10721)
Sequence (P10721 26-976): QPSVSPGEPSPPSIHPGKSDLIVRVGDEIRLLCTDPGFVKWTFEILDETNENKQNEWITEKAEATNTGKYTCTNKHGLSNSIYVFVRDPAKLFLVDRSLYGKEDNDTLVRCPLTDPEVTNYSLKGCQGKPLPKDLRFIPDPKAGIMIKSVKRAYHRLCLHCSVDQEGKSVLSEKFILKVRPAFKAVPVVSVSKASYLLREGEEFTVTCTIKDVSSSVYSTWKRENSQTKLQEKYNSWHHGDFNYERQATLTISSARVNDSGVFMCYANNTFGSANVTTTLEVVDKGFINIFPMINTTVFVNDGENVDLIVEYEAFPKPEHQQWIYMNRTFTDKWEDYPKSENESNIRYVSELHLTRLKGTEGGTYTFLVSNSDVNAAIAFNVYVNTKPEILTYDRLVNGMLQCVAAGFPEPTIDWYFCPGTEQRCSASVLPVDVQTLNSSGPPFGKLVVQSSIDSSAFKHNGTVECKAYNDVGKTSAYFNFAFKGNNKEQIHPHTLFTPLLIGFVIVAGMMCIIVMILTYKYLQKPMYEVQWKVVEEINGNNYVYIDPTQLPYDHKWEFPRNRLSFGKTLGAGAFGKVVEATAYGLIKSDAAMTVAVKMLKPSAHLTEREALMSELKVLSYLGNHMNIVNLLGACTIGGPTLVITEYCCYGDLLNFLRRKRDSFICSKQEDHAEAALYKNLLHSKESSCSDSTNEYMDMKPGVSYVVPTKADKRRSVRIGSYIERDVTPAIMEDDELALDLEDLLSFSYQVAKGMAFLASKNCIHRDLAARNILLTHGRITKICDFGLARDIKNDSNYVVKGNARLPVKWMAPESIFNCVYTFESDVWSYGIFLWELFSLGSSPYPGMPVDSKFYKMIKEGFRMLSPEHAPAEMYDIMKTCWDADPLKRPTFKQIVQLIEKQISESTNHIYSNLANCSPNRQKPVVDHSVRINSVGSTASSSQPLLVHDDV
parameter measured: pIC50
# pIC50 is unitless: minus log10 of the molar concentration; print number only

Entry under test: FC(F)(F)c1ccc(CNc2ccc(Cc3c[nH]c4ncccc34)cn2)cc1 [PLX647, reference compound] . Its pIC50 was 7.17

###

System: HCT116
Experiment: CCK8 antiproliferative assay, HCT116
Type: cell-based
Details: Homo sapiens, HCT-116; CCK8, 48 h, mean ± SD, n = 3
Method: For all biological assays, all of the synthesized compounds were dissolved in DMSO. The cytotoxicity of all of the target compounds against the HCT116, K562, KU812, and HT-29 cells was determined by an CCK8 assay in vitro using adriamycin and echinatin as the controls. […] Then, the absorbance of the samples was measured at 450 nm. The IC50 values were calculated according to the Logit method after obtaining the inhibitory rate. […]
parameter measured: IC50 (µM)

[
  {
    "molecule": "COc1cc(O)ccc1/C=C/C(=O)c1ccc(O)cc1 [Echinatin]",
    "IC50, µM": 4.54
  },
  {
    "molecule": "COc1ccc(Nc2nnc(COc3ccc(C(=O)/C=C/c4ccc(O)cc4OC)cc3)o2)cc1 [Compound T2]",
    "IC50, µM": 3.97
  },
  {
    "molecule": "CCOc1ccc(Nc2nnc(COc3ccc(C(=O)/C=C/c4ccc(O)cc4OC)cc3)o2)cc1 [Compound T3]",
    "IC50, µM": 2.47
  }
]

[I] COc1cc(O)ccc1/C=C/C(=O)c1ccc(OCc2nnc(Nc3ccc(F)cc3)o2)cc1 [Compound T6]
[II] COc1cc(O)ccc1/C=C/C(=O)c1ccc(OCc2nnc(Nc3cccc(C)c3)o2)cc1 [Compound T10]
# input Identify the entry with the larger IC50. Options: I and II Please indicate the selected item by its label.
# output II
(II: 7.62 µM, I: 4.39 µM)

[I] COc1cc(O)ccc1/C=C/C(=O)c1ccc(OCc2nnc(Nc3ccc(C)cc3)o2)cc1 [Compound T1]
[II] COc1cc(O)ccc1/C=C/C(=O)c1ccc(OCc2nnc(Nc3ccc(Cl)cc3)o2)cc1 [Compound T7]
# input Lab note: record which item had the higher IC50, I or II . Reply briefly: the label of your chosen item.
# output I
(I: 4.85 µM, II: 2.08 µM)

[1] COc1cc(O)ccc1/C=C/C(=O)c1ccc(OCc2nnc(Nc3ccc(OC(F)(F)F)cc3)o2)cc1 [Compound T5]
[2] COc1cc(O)ccc1/C=C/C(=O)c1ccc(OCc2nnc(Nc3ccccc3C)o2)cc1 [Compound T9]
# input Of 1 and 2 , whose reported IC50 is the larger number? Answer by stating the label of the chosen item.
# output 2

[P] COc1cc(O)ccc1/C=C/C(=O)c1ccc(OCc2nnc(Nc3ccccc3F)o2)cc1 [Compound T12]
[Q] COc1cc(O)ccc1/C=C/C(=O)c1ccc(OCc2nnc(Nc3ccccc3Cl)o2)cc1 [Compound T13]
# input Lab log: flag the item ( P or Q ) with the smaller IC50 figure. The response must carry the label of the picked entry.
# output P
(P: 6.14 µM, Q: 10.2 µM)
